Biological target: SHP2^E76A protein (Homo sapiens (Human), UniProt Q06124, E76A)
Sequence (Q06124 whole entry E76A): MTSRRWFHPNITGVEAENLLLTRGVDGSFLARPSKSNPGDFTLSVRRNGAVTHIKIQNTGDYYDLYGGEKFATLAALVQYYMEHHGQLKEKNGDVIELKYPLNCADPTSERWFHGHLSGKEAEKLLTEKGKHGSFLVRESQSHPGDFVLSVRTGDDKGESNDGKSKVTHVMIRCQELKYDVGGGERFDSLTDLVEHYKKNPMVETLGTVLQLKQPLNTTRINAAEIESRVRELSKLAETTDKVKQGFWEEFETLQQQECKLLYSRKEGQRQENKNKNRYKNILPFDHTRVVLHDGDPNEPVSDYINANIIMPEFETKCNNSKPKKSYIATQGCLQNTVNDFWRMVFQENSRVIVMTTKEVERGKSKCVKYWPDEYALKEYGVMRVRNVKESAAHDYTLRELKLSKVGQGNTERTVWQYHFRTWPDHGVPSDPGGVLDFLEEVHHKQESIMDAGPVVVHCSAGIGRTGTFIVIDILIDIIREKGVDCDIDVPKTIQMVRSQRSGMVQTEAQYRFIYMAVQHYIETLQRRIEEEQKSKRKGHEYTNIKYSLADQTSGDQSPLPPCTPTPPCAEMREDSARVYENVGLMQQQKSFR
Assay: SHP2 enzyme activity inhibition experiment
Type: biochemical
Conditions: Table 4; read-out: SHP2 enzyme activity IC50
Method: Compound powders were dissolved in DMSO to prepare mother liquor. During the experiment, the stock solutions of the compounds were subjected to 3-fold gradient dilution with DMSO, and 10 different test concentrations of each compound were set. […] The protein used was the activated protein SHP^2E76A with amino acid mutation at position 76 of the protein, and the substrate used was DiFMUP (Invitrogen, E12020). […]
parameter.measured: IC50 (nM)
Give bare numbers, in nM.

compound | measured.target | IC50 / nM
N[C@@H]1CCCC12CCN(c1ncc(Sc3ccnc4ccccc34)c3nccn13)CC2 | SHP2^E76A protein (Homo sapiens (Human), UniProt Q06124, E76A) | 20

Quick request: IC50 for each listed item, please.
1. CC1(CN)CCN(c2ncc(Sc3cccc(Cl)c3Cl)c3nncn23)CC1
2. C[C@@H]1OCC2(CCN(c3ncc(Sc4ccnc(Cl)c4Cl)c4nncn34)CC2)[C@@H]1N
3. CC1C[C@@H](N)C2(CCN(c3ncc(Sc4cccc(Cl)c4Cl)c4nccn34)CC2)C1 (some centres unmarked)
4. C[C@@H]1OCC2(CCN(c3ncc(Sc4cccc(Cl)c4Cl)c4nccn34)CC2)[C@@H]1N

[reply]
40
5
11
8

* * *

System: phosphorylation level of intracellular protein kinase (ERK) in MOLM13 cells
Experiment: Phosphorylated protein kinase (p-ERK) cell experiment (AlphaLISA)
Assay type: cell-based
Conditions: Homo sapiens, MOLM-13; MOLM13 cells, Table 4; read-out: p-ERK IC50
Provide the reported pIC50 of each item.
Give bare numbers, as −log10 of the molar value.

Some solved cases for reference:
compound | pIC50
C[C@@H]1OCC2(CCN(c3ncc(Sc4ccnc(Cl)c4Cl)c4nncn34)CC2)[C@@H]1N | 6.79
CC1C[C@@H](N)C2(CCN(c3ncc(Sc4cccc(Cl)c4Cl)c4nccn34)CC2)C1 (stereo partly drawn) | 7.28
Cc1nccc(Sc2cnc(N3CCC4(CCC[C@H]4N)CC3)n3ccnc23)c1Cl | 6.74
Nc1cc(Sc2cnc(N3CCC4(CCC[C@H]4N)CC3)n3ccnc23)c(Cl)cn1 | 7.49
Cc1nc(N)cc(Sc2cnc(N3CCC4(CCC[C@H]4N)CC3)n3ccnc23)c1Cl | 7.43

// for each compound below, give its pIC50
1. N[C@@H]1COCC12CCN(c1ncc(Sc3cccc(Cl)c3Cl)c3nncn13)CC2
2. N[C@@H]1CCCC12CCN(c1ncc(Sc3ccncc3Cl)c3nncn13)CC2
3. CC1C[C@@H](N)C2(CCN(c3ncc(Sc4cc(N)nc(Cl)c4Cl)c4nncn34)CC2)C1 (stereo partly drawn)
4. Cc1nc(N)cc(Sc2cnc(N3CCC4(CC3)CO[C@@H](C)[C@H]4N)n3ccnc23)c1Cl

[reply]
1: 6.77; 2: 6.45; 3: 7.33; 4: 7.37

* * *

Provide the recorded IC50 for the entries that follow.
Test system: phosphorylation level of intracellular protein kinase (ERK) in MOLM13 cells
Experiment: Phosphorylated protein kinase (p-ERK) cell experiment (AlphaLISA)
Assay type: cell-based
Conditions: Homo sapiens, MOLM-13; MOLM13 cells, Table 4; read-out: p-ERK IC50
Numbers only, in nM.

The following compounds have reported results that may help.
structure.notation | IC50, nM
Cc1nc(N)cc(Sc2cnc(N3CCC4(CC3)COC[C@H]4N)n3ccnc23)c1Cl | 160
COc1ccccc1Sc1cnc(N2CCC3(CCC[C@H]3N)CC2)n2ccnc12 | 469
C[C@@H]1OCC2(CCN(c3ncc(Sc4ccnc(N)c4Cl)c4nncn34)CC2)[C@@H]1N | 335

Would you mind listing IC50 for each of the following compounds?
1. Cc1nccc(Sc2cnc(N3CCC4(CCC[C@H]4N)CC3)n3cnnc23)c1Cl
2. Nc1cccc(Sc2cnc(N3CCC4(CCC[C@H]4N)CC3)n3cnnc23)c1Cl

[reply]
1. 177
2. 245
